methodDescription: Drug distribution in prostate gland of CB17:SCID mouse xenografted with human VCaP cells at 20 mg/kg, po measured at 1 hrs by LCMS analysis
Type: ADME, organism-based
details: read-out: Drug uptake
readoutType: concentration at 1 h

• CN(c1ccc(C#N)c(Cl)c1)[C@H]1CC[C@H](NC(=O)c2ccc(N3CCN(C4CN(c5ccc6c(c5)C(=O)N(C5CCC(=O)NC5=O)C6=O)C4)CC3)cc2)CC1 (stereo partly specified) = 25 ng/g

---

methodDescription: Drug distribution in CB17:SCID mouse xenografted with human VCaP cells assessed as kidney to plasma ratio at 20 mg/kg, po measured at 6 hrs by LCMS analysis
Format: ADME, organism-based
readoutType: Kp at 6 h

• CN(c1ccc(C#N)c(Cl)c1)[C@H]1CC[C@H](NC(=O)c2ccc(N3CCN(C4CN(c5ccc6c(c5)C(=O)N(C5CCC(=O)NC5=O)C6=O)C4)CC3)cc2)CC1 (stereo partly specified) = 4.9
